# Test system: human K-562 leukemia cells
# TEST: Antiproliferative assay on K-562 cells (CellTiter-Blue viability readout)
# Format: cell-based
# EXPERIMENTAL PARAMETERS: Homo sapiens, K562, 72 h
ASSAY ENDPOINT: IC50 (nM)

COc1oc(CC/C(C)=C/C(C)=C/c2ccc(C#N)cc2)c(C)c(=O)c1C: 1000
COc1oc(CC/C(C)=C/C(C)=C/c2ccc(F)cc2)c(C)c(=O)c1C: 1000
COc1oc(CC/C(C)=C/C(C)=C/c2ccc(Cl)cc2)c(C)c(=O)c1C: 2000
COc1oc(CC/C(C)=C/C(C)=C/c2ccc(Br)cc2)c(C)c(=O)c1C: 1000

A = COc1oc(CC/C(C)=C/C(C)=C/c2ccc3ccccc3c2)c(C)c(=O)c1C [R = Ar-Ph, 2-naphthoate-DOA]
B = COc1oc(CC/C(C)=C/C(C)=C/c2ccc(I)cc2)c(C)c(=O)c1C
Query :: Lab note: check whether A or B has the lower measured IC50. API: response body contains the label of the selected item.
Result :: B
(B: 1000 nM, A: 21000 nM)
